Target: Progesterone receptor (Homo sapiens, UniProt P06401)
Sequence (P06401 whole entry): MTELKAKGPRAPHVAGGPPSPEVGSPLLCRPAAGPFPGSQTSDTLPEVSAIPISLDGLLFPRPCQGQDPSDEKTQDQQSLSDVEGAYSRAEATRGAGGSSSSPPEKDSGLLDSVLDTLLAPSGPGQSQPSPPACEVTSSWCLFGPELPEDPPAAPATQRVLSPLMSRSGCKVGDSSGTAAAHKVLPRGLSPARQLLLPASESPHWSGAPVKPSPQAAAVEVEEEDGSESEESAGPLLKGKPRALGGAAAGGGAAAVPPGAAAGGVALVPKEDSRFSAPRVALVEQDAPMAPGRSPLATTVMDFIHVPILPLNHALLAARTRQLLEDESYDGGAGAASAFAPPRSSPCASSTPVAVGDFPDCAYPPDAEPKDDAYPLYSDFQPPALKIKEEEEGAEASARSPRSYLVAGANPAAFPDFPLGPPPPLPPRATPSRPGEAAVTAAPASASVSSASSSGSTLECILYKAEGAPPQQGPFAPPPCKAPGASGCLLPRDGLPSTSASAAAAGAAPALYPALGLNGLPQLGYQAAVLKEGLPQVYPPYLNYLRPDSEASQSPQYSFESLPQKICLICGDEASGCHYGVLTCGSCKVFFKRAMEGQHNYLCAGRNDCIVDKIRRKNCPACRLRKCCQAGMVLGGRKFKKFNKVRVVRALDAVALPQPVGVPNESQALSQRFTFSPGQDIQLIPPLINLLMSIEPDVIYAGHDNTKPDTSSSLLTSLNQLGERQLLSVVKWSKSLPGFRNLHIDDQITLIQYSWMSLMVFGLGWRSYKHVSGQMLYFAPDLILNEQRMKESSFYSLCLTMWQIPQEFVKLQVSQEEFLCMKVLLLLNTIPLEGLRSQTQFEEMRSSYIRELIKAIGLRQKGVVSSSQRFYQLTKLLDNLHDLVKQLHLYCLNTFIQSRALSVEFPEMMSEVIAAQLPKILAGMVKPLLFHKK
measured-quantity: IC50 (µM)
Only the number, expressed in µM, is required.

Take a look at these entries with their results.
Input Cc1cc(C)c(S(=O)(=O)NC(Cn2ccc3ccccc32)C(F)(F)F)c(C)c1 (centres undefined) . Output IC50: 2.4

Input CC[C@@H](Cn1cc(C#N)c2ccccc21)NS(=O)(=O)c1c(N)cc(Cl)cc1Cl . Output IC50: 1.5

Input CC(C)(Cc1c[nH]c2ccccc12)NS(=O)(=O)c1c(N)cc(Cl)cc1Cl . Output IC50: 5.3

// next item, IC50 requested
Input Cc1cc(C)c(S(=O)(=O)NC(CNc2ccccc2)C(F)(F)F)c(C)c1 (centres undefined) . Output IC50: 3.2

====

Assay: Half life in human liver microsomes
Assay type: ADME
measured-quantity: half-life

Input CC[C@@H](Cn1ccc2ccccc21)NS(=O)(=O)c1c(N)cc(Cl)cc1Cl . Output half-life: 3 min

Input CC[C@@H](Cn1cc(C#N)c2ccccc21)NS(=O)(=O)c1c(N)cc(Cl)cc1Cl . Output half-life: 3 min

// next item, half-life requested
Input CC[C@@H](Cn1cc(C)c2ccccc21)NS(=O)(=O)c1c(N)cc(Cl)cc1Cl . Output half-life: 2 min

====

// values below are reported IC50
Target: Glucocorticoid receptor (Homo sapiens)
Sequence (P04150 whole entry): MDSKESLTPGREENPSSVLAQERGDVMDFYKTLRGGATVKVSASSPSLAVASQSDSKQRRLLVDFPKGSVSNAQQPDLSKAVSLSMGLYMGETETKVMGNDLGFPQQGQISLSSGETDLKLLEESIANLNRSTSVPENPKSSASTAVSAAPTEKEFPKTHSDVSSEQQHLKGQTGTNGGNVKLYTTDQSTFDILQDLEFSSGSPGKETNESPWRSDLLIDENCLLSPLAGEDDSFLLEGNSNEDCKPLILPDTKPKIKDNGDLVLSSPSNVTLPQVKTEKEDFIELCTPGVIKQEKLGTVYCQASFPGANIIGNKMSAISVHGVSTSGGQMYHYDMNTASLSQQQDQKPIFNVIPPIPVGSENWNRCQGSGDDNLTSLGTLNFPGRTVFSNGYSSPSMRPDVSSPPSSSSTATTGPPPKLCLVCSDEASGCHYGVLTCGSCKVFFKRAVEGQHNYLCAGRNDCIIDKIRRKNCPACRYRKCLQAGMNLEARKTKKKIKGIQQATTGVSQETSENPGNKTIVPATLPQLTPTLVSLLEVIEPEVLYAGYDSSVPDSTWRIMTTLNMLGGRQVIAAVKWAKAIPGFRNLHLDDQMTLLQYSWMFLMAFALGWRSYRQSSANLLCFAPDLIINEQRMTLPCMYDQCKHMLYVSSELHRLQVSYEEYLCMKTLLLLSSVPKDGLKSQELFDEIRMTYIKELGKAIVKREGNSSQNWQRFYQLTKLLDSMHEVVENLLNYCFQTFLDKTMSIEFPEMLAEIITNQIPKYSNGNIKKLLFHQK
Assay: Agonist activity at glucocorticoid receptor in HFF assessed as inhibition of IL-1-induced IL-6 production after 24 hrs

Input Cc1cc(C)c(S(=O)(=O)NC(Cc2c[nH]c3ccccc23)C(F)(F)F)c(C)c1 (stereo not given) . Output IC50: > 2000 nM

New cases:
Input Cc1cc(C)c(S(=O)(=O)NC(Cc2c[nH]c3ccc(C#N)cc23)C(F)(F)F)c(C)c1 (stereo not given) . Output IC50: > 10000 nM

Input O=S(=O)(NC(Cc1c[nH]c2ccccc12)C(F)(F)F)c1c(Cl)cc(Cl)cc1Cl (stereo not given) . Output IC50: > 2000 nM

Input CC[C@@H](Cn1ccc2ccccc21)NS(=O)(=O)c1c(N)cc(Cl)cc1Cl . Output IC50: > 2000 nM

Input Cc1cc(C)c(S(=O)(=O)NC(Cc2c[nH]c3cccc(C)c23)C(F)(F)F)c(C)c1 (stereo not given) . Output IC50: > 2000 nM
